test system: erythropoiesis of mice; test: Effects of EPO mimetic peptide derivatives on mice, sc injection on three consecutive days, peripheral blood cell and reticulocyte counts; format: in vivo, Kunming mice; details: mouse, 4.5 mg/kg, d1-3
*1 amine or outer side, *2 acyl side, *3 side chain or, on linkers, in order; H or OH if unused. Bridges are numbered along the chain shown (N, C = ends). Roman numbers before positions name the chains, in order. [ ]: non-standard residue; d: D form. ξ: configuration not given here. X1 = NCCNC(=O)OC(CCC(=O)[*:1])CCC(=O)[*:2]; Nle = CCCC[C@H](N)C(=O)O; ξK = NCCCCC(N)C(=O)O; βAla = NCCC(=O)O
PARAMETER: White Blood Cell

Answer with reported White Blood Cell of I: Ac-GGTYSCHFGALTWVCRPQRG[βAla][ξK]-NH2 / II: Ac-GGTYSCHFGALTWVCRPQRG[βAla][ξK]-NH2 (disulfide I:6-I:15, II:6-II:15; linker I:22-II:22 via X1) [HH-EPO-008]
2.9 ± 0.5 ×10^3/μL

Assign White Blood Cell to the following record: I: Ac-GGTYSCHFGSLTWVCRPQRG[βAla][ξK]-NH2 / II: Ac-GGTYSCHFGSLTWVCRPQRG[βAla][ξK]-NH2 (disulfide I:6-I:15, II:6-II:15; linker I:22-II:22 via X1) [HH-EPO-007]
3.6 ± 0.8 ×10^3/μL

Annotate the substance I: Ac-GGTYSC[Nle]FGPLTWVCRPQRG[βAla][ξK]-NH2 / II: Ac-GGTYSC[Nle]FGPLTWVCRPQRG[βAla][ξK]-NH2 (disulfide I:6-I:15, II:6-II:15; linker I:22-II:22 via X1) [HH-EPO-006] with its measured White Blood Cell.
4.1 ± 1.2 ×10^3/μL

Give reported White Blood Cell value for I: Ac-GGTYSCHFGPLTWVCRPQRG[βAla][ξK]-NH2 / II: Ac-GGTYSCHFGPLTWVCRPQRG[βAla][ξK]-NH2 (disulfide I:6-I:15, II:6-II:15; linker I:22-II:22 via X1) [HH-EPO-005]
4.2 ± 1.2 ×10^3/μL
